- assayed.target: X-box-binding protein 1 (Homo sapiens)
- test.details: ATG_Xbp1_CIS: Attagene CIS-FACTORIAL HepG2 Assay for human X-box Binding Protein 1 (XBP1) (AID 2282972)
- test.settings: HepG2 XBP1 cis-element reporter, Attagene multiplex; actives raise or lower the signal
The source made the active and inactive calls. The calls were made as follows: active = hit-call score of the fitted dose curve at least 0.9, where 1 is the maximum; inactive = score below 0.9.
# output must be one of active, inactive

Exam item: Give the logged outcome of this assay for the following molecule: CCCCOC(=O)c1ccccc1C(=O)OCCCC
Marked response: inactive

Exam item: # outcome recorded in this test, key = CC1=C(C(=O)Nc2ccccc2)SCCO1
Marked response: inactive

Exam item: How was CCCC1COC(Cn2cncn2)(c2ccc(Cl)cc2Cl)O1 (configuration not stated) classified in this test?
Marked response: inactive

Exam item: Which outcome was assigned to CCNc1nc(Cl)nc(NCC)n1 in this test?
Marked response: inactive

Exam item: Write down the call the test reported for this molecule. Item: C=CCC1=C(C)[C@@H](OC(=O)[C@@H]2[C@@H](C=C(C)C)C2(C)C)CC1=O
Marked response: inactive

Exam item: Returns: the outcome recorded for C#CCOS(=O)OC1CCCCC1Oc1ccc(C(C)(C)C)cc1 (configuration not stated) in this assay.
Marked response: inactive

Exam item: Which outcome was entered for the molecule OC(c1ccc(Cl)cc1)(c1cncnc1)c1ccccc1Cl (configuration not stated) in this test?
Marked response: inactive

Exam item: # fetch the recorded call for CCOc1cc(Oc2ccc(C(F)(F)F)cc2Cl)ccc1[N+](=O)[O-] here
Marked response: active

Exam item: Assay result, entry CCc1nn(C)c(C(=O)NCc2ccc(C(C)(C)C)cc2)c1Cl — outcome?
Marked response: active

Exam item: How did this test come out for O=C(O)c1nc(Cl)ccc1Cl ?
Marked response: inactive

Exam item: Would you mind telling me which call this test gave COC(=O)C(C)Oc1ccc(Oc2ccc(Cl)cc2Cl)cc1 (configuration not stated) ?
Marked response: inactive

Exam item: // outcome(item) with item = COc1nc(C)nc(NC(=O)NS(=O)(=O)c2ccccc2CCC(F)(F)F)n1
Marked response: inactive

Data provenance is PubChem BioAssay (EPA / NIEHS).
